# METHOD SUMMARY: Plasma concentration in rat at 30 mg/kg, po after 2 hrs
# Assay type: ADME, organism-based
# Set-up: dose 30 mg/kg, route oral
ENDPOINT NAME: concentration at 2 h (ng/mL)
The reply should contain only the number, in ng/mL.

For the compound "CC(=O)Nc1cc(-c2cccc(N3CCC(O)CC3)n2)nc(-n2nc(C)cc2C)n1" , what concentration at 2 h is on record?
180

###

# Species on record: Homo sapiens
# METHOD SUMMARY: Selectivity ratio of Ki for human adenosine A1 receptor to Ki for human adenosine A2A receptor
Decide using Ratio Ki alone. Strictly below 70: condition met. Equal to or above 70: condition not met.

is_below(Ratio Ki, 70) for "CC(=O)Nc1cc(-c2cccc(N3CCOCC3)n2)nc(-n2nc(C)cc2C)n1" ?
condition not met

Also "CCC(=O)Nc1cc(-c2cncc(OC)c2)nc(-n2nc(C)cc2C)n1" , if possible.
condition met

Also "COc1cccc(-c2cc(NC(C)=O)nc(-n3nc(C)cc3C)n2)c1F" , if possible.
condition not met

Also "CC(=O)Nc1cc(-c2ccnc(N3CCOCC3)c2)nc(-n2nc(C)cc2C)n1" , if possible.
condition met

Also "COc1cncc(-c2cc(NC(=O)CN3CCOCC3)nc(-n3nc(C)cc3C)n2)c1" , if possible.
condition not met

Also "CC(=O)Nc1cc(-c2cccc(N3CCC(O)CC3)n2)nc(-n2nc(C)cc2C)n1" , if possible.
condition not met

Also "COc1cncc(-c2cc(NC(C)=O)nc(-n3nc(C)cc3C)n2)c1" , if possible.
condition not met

Also "CC(=O)Nc1cc(-c2cccc(N3CCCCC3)n2)nc(-n2nc(C)cc2C)n1" , if possible.
condition met

Value source: ChEMBL document CHEMBL1152277
